- study-target: full length NRF2 protein and full length Keap1 protein (Homo sapiens)
- Construct: full length NRF2 protein and full length Keap1 protein; His
- Sequence (Q14145 whole entry): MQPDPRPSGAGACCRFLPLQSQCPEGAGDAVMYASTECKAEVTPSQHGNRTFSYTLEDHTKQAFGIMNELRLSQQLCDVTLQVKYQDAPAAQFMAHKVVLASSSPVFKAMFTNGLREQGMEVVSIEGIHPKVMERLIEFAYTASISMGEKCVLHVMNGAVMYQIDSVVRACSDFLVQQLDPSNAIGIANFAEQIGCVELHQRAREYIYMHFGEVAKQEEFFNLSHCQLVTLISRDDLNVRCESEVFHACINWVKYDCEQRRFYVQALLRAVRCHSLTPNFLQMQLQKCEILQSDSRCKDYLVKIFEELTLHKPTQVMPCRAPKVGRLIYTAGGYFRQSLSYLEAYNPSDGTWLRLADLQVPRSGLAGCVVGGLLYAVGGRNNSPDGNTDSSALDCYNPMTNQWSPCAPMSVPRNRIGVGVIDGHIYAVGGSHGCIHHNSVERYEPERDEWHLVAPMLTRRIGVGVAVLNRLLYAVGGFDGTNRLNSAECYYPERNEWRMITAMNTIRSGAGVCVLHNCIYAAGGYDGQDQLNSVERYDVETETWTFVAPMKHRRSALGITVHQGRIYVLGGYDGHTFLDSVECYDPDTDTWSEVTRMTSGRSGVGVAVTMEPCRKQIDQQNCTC
- assay-comment: NRF2-Keap1 TR-FRET Low Protein Assay
- test-settings: Keap1 FlagHis, biotin-NRF2
pEC50: −log10 of the molar value.
endpoint: pEC50

Examples with their reported pEC50 follow.
compound	recorded-result
CCCC[C@H]1Cc2ccccc2S(=O)(=O)N(Cc2cccc(-n3ccc(C(=O)O)c3[C@@H]3C[C@H]3c3cn(C)nn3)c2)C1	7.00 to 8.00
CCC[C@@H]1CCCCN1C(=O)c1cc(F)cc(-c2cccc(-n3ccc(C(=O)O)c3[C@@H]3C[C@H]3c3cn(C)nn3)c2)c1	7.00 to 8.00
Cc1ccc(CN2C[C@@H](C)Cc3ccc(C(F)(F)F)cc3S2(=O)=O)cc1-n1ccc(C(=O)O)c1[C@@H]1C[C@H]1c1cn(C)nn1 (racemic)	5.00 to 6.00
CCC[C@@H]1CCCCN1C(=O)c1cccc(-c2cccc(-n3ccc(C(=O)O)c3[C@@H]3C[C@H]3c3cn(C)nn3)c2)c1Br	7.00 to 8.00
C[C@H]1Cc2ccc(Br)cc2S(=O)(=O)N(Cc2cccc(-n3ccc(C(=O)O)c3[C@@H]3C[C@H]3c3cn(C)nn3)c2)C1	7.00 to 8.00
Cn1cc([C@@H]2C[C@H]2c2c(C(=O)O)ccn2-c2cccc(CN3Cc4cc(F)ccc4OC(C)(C)C3)c2)nn1 (racemic)	6.00 to 7.00
CCC[C@@H]1CCCCN1C(=O)c1cccc(-c2cccc(-n3ccc(C(=O)O)c3[C@@H]3C[C@H]3c3cn(C)nn3)c2)c1 (racemic)	7.00 to 8.00
C[C@H]1Cc2cc(C(F)(F)F)ccc2S(=O)(=O)N(Cc2cccc(-n3ccc(C(=O)O)c3[C@@H]3C[C@H]3c3cn(C)nn3)c2)C1 (racemic)	7.00 to 8.00
CCC[C@@H]1CCCCN1C(=O)c1cccc(-c2cccc(-n3ccc(C(=O)O)c3[C@@H]3C[C@H]3c3cn(C)nn3)c2)c1C(F)(F)F	5.00 to 6.00
Cn1cc([C@@H]2C[C@H]2c2c(C(=O)O)ccn2-c2cccc(CN3Cc4cc(Br)ccc4OC(C)(C)C3)c2)nn1 (racemic)	6.00 to 7.00

Entry `C[C@H](Oc1cccc(-c2cccc(-n3ccc(C(=O)O)c3[C@H]3C[C@@H]3c3cn(C)nn3)c2)c1)C1CCCCC1` ; assay system full length NRF2 protein and full length Keap1 protein (Homo sapiens); pEC50 recorded at 6.00 to 7.00

Entry CCC[C@@H]1CCCCN1C(=O)c1cccc(-c2cccc(-n3ccc(C(=O)O)c3[C@@H]3C[C@H]3c3cn(C)nn3)c2)c1F (racemic) ; assay system full length NRF2 protein and full length Keap1 protein (Homo sapiens); pEC50 recorded at 7.00 to 8.00

Entry `CC[C@H]1Cc2ccc(Br)cc2S(=O)(=O)N(Cc2cccc(-n3ccc(C(=O)O)c3[C@@H]3C[C@H]3c3cn(C)nn3)c2)C1` ; assay system full length NRF2 protein and full length Keap1 protein (Homo sapiens); pEC50 recorded at > 8.00

Entry `CCCC[C@H]1Cc2ccc(C(F)(F)F)cc2S(=O)(=O)N(Cc2cccc(-n3ccc(C(=O)O)c3[C@@H]3C[C@H]3c3cn(C)nn3)c2)C1` ; assay system full length NRF2 protein and full length Keap1 protein (Homo sapiens); pEC50 recorded at 7.00 to 8.00

----------
- System: NQO1 specific enzyme activity in BEAS-2B cells (marker for NRF2 activation)
- assay-comment: Beas2B NQO1 MTT Assay
- Assay type: cell-based
- test-settings: Homo sapiens, NQO1 specific activity induction, 48 hours with compound
pEC50: −log10 of the molar value.
Quick reference for pEC50 among some compounds

Examples with their reported pEC50 follow.
compound	study-target	pEC50
Cn1cc([C@@H]2C[C@H]2c2c(C(=O)O)ccn2-c2cccc(CN3Cc4ccccc4CC(C)(C)C3)c2)nn1 (racemic)	NQO1 specific enzyme activity in BEAS-2B cells (marker for NRF2 activation)	6.00 to 7.00
CCC[C@@H]1CCCCN1C(=O)c1cccc(-c2cccc(-n3ccc(C(=O)O)c3[C@@H]3C[C@H]3c3cn(C)nn3)c2)c1 (racemic)	NQO1 specific enzyme activity in BEAS-2B cells (marker for NRF2 activation)	7.00 to 8.00
Cc1ccc(CN2C[C@@H](C)Cc3ccc(C(F)(F)F)cc3S2(=O)=O)cc1-n1ccc(C(=O)O)c1[C@@H]1C[C@H]1c1cn(C)nn1 (racemic)	NQO1 specific enzyme activity in BEAS-2B cells (marker for NRF2 activation)	6.00 to 7.00

Sure, the documented pEC50 for C[C@H]1Cc2ccc(C(F)(F)F)cc2S(=O)(=O)N(Cc2cccc(-n3ccc(C(=O)O)c3[C@@H]3C[C@H]3c3cn(C)nn3)c2)C1 (racemic) [Example 1] is 7.00 to 8.00

Sure, the documented pEC50 for C[C@H]1Cc2cc(C(F)(F)F)ccc2S(=O)(=O)N(Cc2cccc(-n3ccc(C(=O)O)c3[C@@H]3C[C@H]3c3cn(C)nn3)c2)C1 (racemic) is 7.00 to 8.00

Sure, the documented pEC50 for Cn1cc([C@@H]2C[C@H]2c2c(C(=O)O)ccn2-c2cccc(CN3Cc4cc(F)ccc4OC(C)(C)C3)c2)nn1 (racemic) is 6.00 to 7.00

----------
- study-target: full length NRF2 protein and full length Keap1 protein (Homo sapiens)
- Construct: full length NRF2 protein and full length Keap1 protein; His
- assay-comment: NRF2-Keap1 TR-FRET Low Protein Assay
- test-settings: Keap1 FlagHis, biotin-NRF2
Quick reference for EC50 among some compounds

compound	endpoint	recorded-result
Cc1c(CN2C[C@@H](C)Cc3ccc(C(F)(F)F)cc3S2(=O)=O)cccc1-n1ccc(C(=O)O)c1[C@@H]1C[C@H]1c1cn(C)nn1 (racemic)	EC50	100 to 1000 nM
C[C@H]1Cc2ccc(C(F)(F)F)cc2S(=O)(=O)N(C2CCc3c2cccc3-n2ccc(C(=O)O)c2C2CC2)C1 (mixture of isomers)	EC50	10000 to 100000 nM

Now for a further compound.
Sure, the documented EC50 for `CC[C@H]1Cc2cc(C(F)(F)F)ccc2S(=O)(=O)N(Cc2cccc(-n3ccc(C(=O)O)c3[C@@H]3C[C@H]3c3cn(C)nn3)c2)C1` is 10 to 100 nM

----------
Quick reference for EC50 among some compounds
- System: NQO1 specific enzyme activity in BEAS-2B cells (marker for NRF2 activation)
- assay-comment: Beas2B NQO1 MTT Assay
- Type: cell-based
- test-settings: Homo sapiens, NQO1 specific activity induction, 48 hours with compound

Examples with their reported EC50 follow.
compound	study-target	endpoint	recorded-result
CCC[C@@H]1CCCCN1C(=O)c1cccc(-c2cccc(-n3ccc(C(=O)O)c3[C@@H]3C[C@H]3c3cn(C)nn3)c2)c1C(F)(F)F	NQO1 specific enzyme activity in BEAS-2B cells (marker for NRF2 activation)	EC50	1 to 10 µM
C[C@H](Oc1cccc(-c2cccc(-n3ccc(C(=O)O)c3[C@@H]3C[C@H]3c3cn(C)nn3)c2)c1)C1CCCCC1 (racemic) [Example 13]	NQO1 specific enzyme activity in BEAS-2B cells (marker for NRF2 activation)	EC50	0.01 to 0.1 µM
CC[C@H]1Cc2cc(C(F)(F)F)ccc2S(=O)(=O)N(Cc2cccc(-n3ccc(C(=O)O)c3[C@@H]3C[C@H]3c3cn(C)nn3)c2)C1	NQO1 specific enzyme activity in BEAS-2B cells (marker for NRF2 activation)	EC50	0.001 to 0.01 µM

Sure, the documented EC50 for `CC[C@H]1Cc2ccc(Br)cc2S(=O)(=O)N(Cc2cccc(-n3ccc(C(=O)O)c3[C@@H]3C[C@H]3c3cn(C)nn3)c2)C1` is < 0.001 µM

Sure, the documented EC50 for `CCCC[C@H]1Cc2ccc(C(F)(F)F)cc2S(=O)(=O)N(Cc2cccc(-n3ccc(C(=O)O)c3[C@@H]3C[C@H]3c3cn(C)nn3)c2)C1` is < 0.001 µM

Sure, the documented EC50 for C[C@H]1Cc2ccc(C(F)(F)F)cc2S(=O)(=O)N(Cc2cccc(-n3ccc(C(=O)O)c3[C@@H]3C[C@H]3c3cn(C)nn3)c2)C1 [Example 4] is 0.001 to 0.01 µM

----------
- Tested on: NQO1 specific enzyme activity in BEAS-2B cells (marker for NRF2 activation)
- assay-comment: Beas2B NQO1 MTT Assay
- Format: cell-based
- test-settings: Homo sapiens, NQO1 specific activity induction, 48 hours with compound
- Source text: NAD(P)H:quinone oxidoreductase 1 (NQO1), also called DT diaphorase, is a homodimeric FAD-containing enzyme that catalyses obligatory NAD(P)H-dependent two-electron reductions of quinones and protects cells against the toxic and neoplastic effects of free radicals and reactive oxygen species arising from one-electron reductions. […] On day one, frozen BEAS-2B cells (ATCC) were thawed in a water bath, counted, and re-suspended at a concentration of 250,000 cells/mL. […]
endpoint: EC50

compound	EC50
CCC[C@@H]1CCCCN1C(=O)c1cccc(-c2cccc(-n3ccc(C(=O)O)c3[C@@H]3C[C@H]3c3cn(C)nn3)c2)c1Br	10 to 100 nM
CCC[C@@H]1CCCCN1C(=O)c1cccc(-c2cccc(-n3ccc(C(=O)O)c3[C@@H]3C[C@H]3c3cn(C)nn3)c2)c1F [Example 16]	1 to 10 nM
C[C@H]1Cc2ccc(C(F)(F)F)cc2S(=O)(=O)N(C2CCc3c2cccc3-n2ccc(C(=O)O)c2C2CC2)C1 (mixture of isomers)	100 to 1000 nM
C[C@H]1Cc2ccc(Br)cc2S(=O)(=O)N(Cc2cccc(-n3ccc(C(=O)O)c3[C@@H]3C[C@H]3c3cn(C)nn3)c2)C1	1 to 10 nM

Entry CCC[C@@H]1CCCCN1C(=O)c1cccc(-c2cccc(-n3ccc(C(=O)O)c3[C@@H]3C[C@H]3c3cn(C)nn3)c2)c1F (racemic) [Example 15] ; assay system NQO1 specific enzyme activity in BEAS-2B cells (marker for NRF2 activation); EC50 recorded at 1 to 10 nM

Entry `CCCC[C@H]1Cc2ccccc2S(=O)(=O)N(Cc2cccc(-n3ccc(C(=O)O)c3[C@@H]3C[C@H]3c3cn(C)nn3)c2)C1` ; assay system NQO1 specific enzyme activity in BEAS-2B cells (marker for NRF2 activation); EC50 recorded at 10 to 100 nM

Entry C[C@H](Oc1cccc(-c2cccc(-n3ccc(C(=O)O)c3[C@@H]3C[C@H]3c3cn(C)nn3)c2)c1)C1CCCCC1 [Example 18] ; assay system NQO1 specific enzyme activity in BEAS-2B cells (marker for NRF2 activation); EC50 recorded at 10 to 100 nM
